particulars: in sec-butanol, 298.2 K
readout.name: solubility (mole fraction)
Form: value (number only, do not type unit).

Exam item: GET /values?readout=solubility (mole fraction)&item= CO[C@H]1/C=C/O[C@@]2(C)Oc3c(C)c(O)c4c(O)c(c(/C=N/N5CCN(C)CC5)c(O)c4c3C2=O)NC(=O)/C(C)=C\C=C\[C@H](C)[C@H](O)[C@@H](C)[C@@H](O)[C@@H](C)[C@H](OC(C)=O)[C@@H]1C
Marked response: 0.00048

###

particulars: in triacetin, 313.2 K
readout.name: solubility (mole fraction)

Exam item: What solubility (mole fraction) value was documented for this compound, CO[C@H]1/C=C/O[C@@]2(C)Oc3c(C)c(O)c4c(O)c(c(/C=N/N5CCN(C)CC5)c(O)c4c3C2=O)NC(=O)/C(C)=C\C=C\[C@H](C)[C@H](O)[C@@H](C)[C@@H](O)[C@@H](C)[C@H](OC(C)=O)[C@@H]1C ?
Marked response: 0.00073

###

particulars: in sec-butanol, 308.2 K
readout.name: solubility (mole fraction)
When you answer, write just the number.

Exam item: // query solubility (mole fraction) value for entry CO[C@H]1/C=C/O[C@@]2(C)Oc3c(C)c(O)c4c(O)c(c(/C=N/N5CCN(C)CC5)c(O)c4c3C2=O)NC(=O)/C(C)=C\C=C\[C@H](C)[C@H](O)[C@@H](C)[C@@H](O)[C@@H](C)[C@H](OC(C)=O)[C@@H]1C
Marked response: 0.00059

###

particulars: in span 80, 313.2 K
readout.name: solubility (mole fraction)
Reply briefly: the number, and no unit.

Exam item: Request the reported solubility (mole fraction) associated with CO[C@H]1/C=C/O[C@@]2(C)Oc3c(C)c(O)c4c(O)c(c(/C=N/N5CCN(C)CC5)c(O)c4c3C2=O)NC(=O)/C(C)=C\C=C\[C@H](C)[C@H](O)[C@@H](C)[C@@H](O)[C@@H](C)[C@H](OC(C)=O)[C@@H]1C
Marked response: 0.00085

###

particulars: in isopropyl myristate, 313.2 K
readout.name: solubility (mole fraction)
Hey, just send me the number, nothing else.

Exam item: Data request, read-out solubility (mole fraction), for CO[C@H]1/C=C/O[C@@]2(C)Oc3c(C)c(O)c4c(O)c(c(/C=N/N5CCN(C)CC5)c(O)c4c3C2=O)NC(=O)/C(C)=C\C=C\[C@H](C)[C@H](O)[C@@H](C)[C@@H](O)[C@@H](C)[C@H](OC(C)=O)[C@@H]1C
Marked response: 0.0047

###

particulars: in isopropyl myristate, 298.2 K
readout.name: solubility (mole fraction)
Lab note: jot down the number only; don't add units.

Exam item: // query solubility (mole fraction) value for entry CO[C@H]1/C=C/O[C@@]2(C)Oc3c(C)c(O)c4c(O)c(c(/C=N/N5CCN(C)CC5)c(O)c4c3C2=O)NC(=O)/C(C)=C\C=C\[C@H](C)[C@H](O)[C@@H](C)[C@@H](O)[C@@H](C)[C@H](OC(C)=O)[C@@H]1C
Marked response: 0.0031

###

particulars: in eugenol, 308.2 K
readout.name: solubility (mole fraction)
// no unit, no text: just the number

Exam item: What does the data say about its solubility (mole fraction)? Entry: CO[C@H]1/C=C/O[C@@]2(C)Oc3c(C)c(O)c4c(O)c(c(/C=N/N5CCN(C)CC5)c(O)c4c3C2=O)NC(=O)/C(C)=C\C=C\[C@H](C)[C@H](O)[C@@H](C)[C@@H](O)[C@@H](C)[C@H](OC(C)=O)[C@@H]1C
Marked response: 0.00039

The reported measurements were obtained from BigSolDB 2.1.
